- study.target: T1, hu-IL-36γ (human IL-36γ, N-terminally truncated active form S18-D169) (human, UniProt Q9NZH8 18-169)
- T1 construct: Purification tag cleaved off; Biotinylated where captured; also called hu-IL-36g
- T1 sequence: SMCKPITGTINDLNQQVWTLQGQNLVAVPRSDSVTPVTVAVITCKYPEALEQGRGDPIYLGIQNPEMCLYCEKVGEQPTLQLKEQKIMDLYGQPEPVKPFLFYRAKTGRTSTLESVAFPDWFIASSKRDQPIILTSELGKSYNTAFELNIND
- test.details: SPR (Biacore 8K), biotinylated hu-IL-36 captured on CAP chip, Fab injected, 37°C
Would you mind telling me the reported koff of each entry?
All answers are understood in s⁻¹, so give the number only.

Problem: Find the recorded koff belonging to mAb2.8 Fab (Fab, V domains shown, Recombinant Fab with 8xHis tag (Expi293F)) VH: ELQLQESGPGLVKPSETLSLTCTVSGGSISDSSYYWGWIRQPPGKGLEWIGSIYYTGETYYAPSLKSRVTISVDTSKNQFSLKLSSVTAADTAVYYCARLRYGVGVPRYFDPWGQGTLVTVSS VL: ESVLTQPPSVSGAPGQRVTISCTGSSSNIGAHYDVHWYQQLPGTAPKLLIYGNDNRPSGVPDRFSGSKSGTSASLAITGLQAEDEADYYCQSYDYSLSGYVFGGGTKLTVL and report it.
Solution: 0.000301

Problem: Report koff for mAb2.11 Fab (Fab, V domains shown, Recombinant Fab with 8xHis tag (Expi293F)) VH: ELQLQESGPGLVKPSETLSLTCTVSGGSISESSYYWGWIRQPPGKGLEWIGSIYYTGETYYAPSLKSRVTISVDTSKNQFSLKLSSVTAADTAVYYCARLRYGVGVPRYFDPWGQGTLVTVSS VL: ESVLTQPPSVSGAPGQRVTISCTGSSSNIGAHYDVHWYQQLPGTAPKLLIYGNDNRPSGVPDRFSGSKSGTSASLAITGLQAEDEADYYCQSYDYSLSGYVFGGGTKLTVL please.
Solution: 0.000214
